Source: patent EP4818205A1

# System tested: T1, recombinant protein His-fib-mfTL1A (Macaca fascicularis)
# T1 construct: also called monkey TL1A; Macaca fascicularis TL1A
# T1 chain: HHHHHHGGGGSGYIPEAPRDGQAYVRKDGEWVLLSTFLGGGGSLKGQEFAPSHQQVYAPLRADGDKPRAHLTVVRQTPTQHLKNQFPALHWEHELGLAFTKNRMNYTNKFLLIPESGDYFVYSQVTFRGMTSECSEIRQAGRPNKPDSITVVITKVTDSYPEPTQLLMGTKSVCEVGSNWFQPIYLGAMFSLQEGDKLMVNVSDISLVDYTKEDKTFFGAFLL
# Assay overview: SPR, Biacore T200; antibody captured by anti-human IgG (Fc), TL1A as analyte; 1:1 model
Readout label: kon (M⁻¹ s⁻¹)
Answers are plain numbers, in M⁻¹ s⁻¹.

Answered examples (4):
Binder: mouse anti-TL1A monoclonal antibody S9H9 (antibody, V domains shown) VH: QVQLKQSGAELVRPGTSVKISCKASGYAFTNYWLGWIKQRPGHGLEWIGDIHPGRGNIFYNEKFKGKATLTADKSSSTAYMQLSSLTSEDSAVYFCAEGYDTFDYWGQGTTLTVSA VL: DIVMTQSHKFMSTSVGDRVSITCKASQDVSTAVAWYQQKPGQSPKLLIYSASYRYTGVPDRFTGSGSGTDFTFTISSVQAEDLAVYYCQQHYSTPWTFGGGTKLEMKR
kon, M⁻¹ s⁻¹: 2.9e+06
--
Binder: anti-TL1A monoclonal antibody PRA023 (antibody, V domains shown) VH: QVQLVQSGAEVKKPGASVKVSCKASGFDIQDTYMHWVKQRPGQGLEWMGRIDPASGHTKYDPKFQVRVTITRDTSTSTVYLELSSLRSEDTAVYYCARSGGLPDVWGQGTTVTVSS VL: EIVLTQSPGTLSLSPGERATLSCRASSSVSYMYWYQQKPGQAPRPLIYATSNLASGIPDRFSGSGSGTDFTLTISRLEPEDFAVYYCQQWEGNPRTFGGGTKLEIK
kon, M⁻¹ s⁻¹: 1.12e+06
--
Binder: mouse anti-TL1A monoclonal antibody S7B11 (antibody, V domains shown) VH: QVKLQQSGGELVRPGTSVKISCKASGYAFTNYWLGWIKQRPGHGLEWIGDIHPGRGNIYYNEKFKGKATLTADKSSSTAYMQLSSLTSEDSAVYFCAEGYDTFDYWGQGTTLTVSS VL: DIVMTQSPSYLAASPGETITINCRASKSISKYLAWYQEKPGKTNKLLIYSGSTLQSGIPSRFSGSGSGTDFTLTISSLEPEDFAMYYCQQHNEYPYTFGGGTKLEIKR
kon, M⁻¹ s⁻¹: 1.32e+06
--
Binder: mouse anti-TL1A monoclonal antibody S4D3 (antibody, V domains shown) VH: QVQLKESGSDLATPGASVKLSCKVSGYTFTKYDINWVRQRPEQGLEWIGWIFPGDGRTDYNEKFKGKATLTIDTSSSTAYMQLSRLTSEDSAVYFCARYGYALDYWGQGTSVTVSS VL: DVVMTQTPLSLPVSLGDQASISCRSSQNIVHSNGDTYLEWFLQKPGQSPKLLIYKVSNRFSGVPDRFSGSGSGTDFTLKISRVEAEDLGVYYCFQGSHFPYTFGGGTKLEMKR
kon, M⁻¹ s⁻¹: 1.29e+06

Lab note: next binder to report on.
Input anti-TL1A monoclonal antibody RVT-3101 (antibody, V domains shown) VH: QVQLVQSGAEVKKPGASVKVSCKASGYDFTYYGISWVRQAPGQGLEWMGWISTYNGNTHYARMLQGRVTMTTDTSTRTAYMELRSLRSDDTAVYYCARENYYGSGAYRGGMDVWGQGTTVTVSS VL: EIVLTQSPATLSLSPGERATLSCRASQSVSSYLAWYQQKPGQAPRLLIYDASNRATGIPARFSGSGSGTDFTLTISSLEPEDFAVYYCQQRSNWPWTFGQGTKVEIK . Output kon: 1.64e+06
